The following are reported AC50 results, target or system Cytochrome P450 3A4 (Homo sapiens, UniProt P08684).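 Note: CYP3A4 tested as one member of a cytochrome P450 panel screen.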

The following compounds have reported results that may help.
Lookup result for `CN(C)CCn1c(=O)n(Cc2ccco2)c(=O)c2c3c(sc21)CCCCC3` ; measured AC50: 12.6 µM (inconclusive)

Lookup result for `CO[C@@H]1COC(=O)C/C=C\[C@@H](C)COC(=O)[C@H](COCc2ccccc2)NC(=O)C/C=C\[C@H]1C` ; measured AC50: 3.98 µM (inconclusive)

Lookup result for CCC1=NN(C(=O)CCc2ccccc2)C(O)(C(F)(F)F)C1 (configuration not stated) ; measured AC50: 15.8 µM (inconclusive)

Lookup result for Cc1cc(C(C#N)c2cccc(Cl)c2)n2ncnc2n1 (configuration not stated) ; measured AC50: 14.1 µM (inconclusive)

Lookup result for CC(NC(=O)C1(C)CC1(Br)Br)C(C)(C)C (configuration not stated) ; measured AC50: 14.1 µM (inconclusive)

Lookup result for `Cl.Fc1ccc(CCNCc2cccc(Cl)c2)cc1` ; measured AC50: 12.6 µM (inconclusive)

Lookup result for `O=C(Nc1cccc(-c2cnc3ccccc3n2)c1)c1ccc(Cl)cc1` ; measured AC50: 3.55 µM (inconclusive)

Lookup result for `c1ccc2c(NCCN3CCOCC3)nc(-c3ccoc3)nc2c1` ; measured AC50: 15.8 µM (inconclusive)

Hey, can you go through the list below and give me AC50 for every item?
1. O=C(Oc1ccccc1)N1CCC2(CCCN(Cc3ccccc3)C2)CC1
2. COc1ccc([C@@H](Nc2ccccn2)c2cc(C(C)(C)C)cc(C(C)(C)C)c2O)cc1
3. COc1cccc(OCCCOc2ccccc2C(C)C)c1
4. NC[C@H](O)c1cc(O)c(O)cc1F
5. Cc1nc2ncnn2c(C)c1CCC(=O)Nc1ccc(S(=O)(=O)N2CCCCCC2)cc1
6. CCOc1ccc(CNC(=O)C2CC(=O)N(C3CCCC3)C2)cc1OC (configuration not stated)
7. CC(C)(C)CC(=O)NC(=S)Nc1ccccc1C(F)(F)F

1: 12.6 µM (inconclusive); 2: 2 µM (inconclusive); 3: 0.0178 µM (inconclusive); 4: 31.6 µM (inconclusive); 5: 39.8 µM (inconclusive); 6: 25.1 µM (inconclusive); 7: 22.4 µM (inconclusive)

Hey, can you go through the list below and give me AC50 for every item?
1. Cc1cccc(NC(=S)NC(=O)c2cccs2)n1
2. O=c1c(-c2ccc(F)cc2)nc2cnc(N3CCNCC3)nc2n1-c1ccccc1

1. 28.2 µM (inconclusive)
2. 25.1 µM (inconclusive)

This collection of values is drawn from ChEMBL document CHEMBL1201862.
